# Tested on: TK-10
Observable: GI50 (µM)
Give bare numbers, in µM.

Recorded results for 3 compounds are shown here.
Cc1cc2nc3c4ccccc4n(CCN(C)C)c3nc2cc1C [B220, reference compound] ... 2.97
Cc1cc2nc3c4cc(N)ccc4n(CCN(C)C)c3nc2cc1C [JBD-136] ... 2.26
Cc1cc2nc3c4cc(O)ccc4n(CCN(C)C)c3nc2cc1C [JBD-139] ... 1.74

Record GI50 per entry; entries follow.
1. Cc1cc2nc3c4cc([N+](=O)[O-])ccc4n(CCN(C)C)c3nc2cc1C [JBA-185]
2. COc1ccc2c(c1)c1nc3cc(C)c(C)cc3nc1n2CCN(C)C [JBA-094]

Reply:
1: 0.371; 2: 1.96

---

Give measured CC50 at 48 h for each item. Keep answers brief.
# Experiment summary: Human tumor cell line growth assay (SRB)
# Assay type: cell-based
# Test settings: human, MOLT-4 cells (leukemia), MOLT-4, 48 h, read-out: LC50

Recorded results for 2 compounds are shown here.
COc1ccc2c(c1)c1nc3cc(C)c(C)cc3nc1n2CCN(C)C ... 96 µM
Cc1cc2nc3c4cc([N+](=O)[O-])ccc4n(CCN(C)C)c3nc2cc1C ... > 100 µM

Record CC50 at 48 h per entry; entries follow.
1. Cc1cc2nc3c4ccccc4n(CCN(C)C)c3nc2cc1C [B220, reference compound]
2. Cc1cc2nc3c4cc(N)ccc4n(CCN(C)C)c3nc2cc1C
3. Cc1cc2nc3c4cc(O)ccc4n(CCN(C)C)c3nc2cc1C

Reply:
["95.1 µM", "71.9 µM", "> 100 µM"]

---

Give measured CC50 at 48 h for each item. Keep answers brief.
# Experiment summary: Human tumor cell line growth assay (SRB)
# Type: cell-based
# Test settings: human, EKVX cells (NSCLC), read-out: LC50
One number for each entry, in µM.

COc1ccc2c(c1)c1nc3cc(C)c(C)cc3nc1n2CCN(C)C ... 6.8

Now for a further molecule.
Query: CC50 at 48 h for Cc1cc2nc3c4ccccc4n(CCN(C)C)c3nc2cc1C [B220, reference compound] ?
Reply: 83.9

---

Here's a batch of compounds along with measured GI50 for SF-539.

Recorded results for 4 compounds are shown here.
COc1ccc2c(c1)c1nc3cc(C)c(C)cc3nc1n2CCN(C)C ... 663 nM
Cc1cc2nc3c4cc([N+](=O)[O-])ccc4n(CCN(C)C)c3nc2cc1C ... 387 nM
Cc1cc2nc3c4cc(O)ccc4n(CCN(C)C)c3nc2cc1C ... 422 nM
Cc1cc2nc3c4cc(N)ccc4n(CCN(C)C)c3nc2cc1C ... 882 nM

Query: GI50 for Cc1cc2nc3c4ccccc4n(CCN(C)C)c3nc2cc1C [B220, reference compound] ?
Reply: 1830 nM

---

Give measured GI50 for each item. Keep answers brief.
# Test system: UO-31
Answers are plain numbers, in µM.

Cc1cc2nc3c4ccccc4n(CCN(C)C)c3nc2cc1C [B220, reference compound] ... 0.726
COc1ccc2c(c1)c1nc3cc(C)c(C)cc3nc1n2CCN(C)C ... 0.273
Cc1cc2nc3c4cc(N)ccc4n(CCN(C)C)c3nc2cc1C ... 0.332
Cc1cc2nc3c4cc([N+](=O)[O-])ccc4n(CCN(C)C)c3nc2cc1C ... 0.187

Now for a further compound.
Query: GI50 for `Cc1cc2nc3c4cc(O)ccc4n(CCN(C)C)c3nc2cc1C` ?
Reply: 1.39
